Biological target: c-Cbl (Homo sapiens (Human))
Sequence (P22681 47-435): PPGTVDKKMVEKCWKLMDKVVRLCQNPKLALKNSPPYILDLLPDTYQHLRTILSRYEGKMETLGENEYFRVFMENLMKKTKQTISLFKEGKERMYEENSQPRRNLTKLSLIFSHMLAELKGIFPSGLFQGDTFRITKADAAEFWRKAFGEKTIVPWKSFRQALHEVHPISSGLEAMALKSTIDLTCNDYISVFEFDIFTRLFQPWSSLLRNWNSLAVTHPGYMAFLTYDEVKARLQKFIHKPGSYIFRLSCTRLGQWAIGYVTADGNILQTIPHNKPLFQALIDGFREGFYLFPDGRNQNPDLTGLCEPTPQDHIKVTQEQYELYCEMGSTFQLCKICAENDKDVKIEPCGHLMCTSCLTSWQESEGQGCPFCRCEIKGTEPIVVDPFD
pIC50: −log10 of the molar value.
TEST_READOUT: pIC50

>  <MOLECULE>
COC[C@H]1C[C@](c2cccc(N3Cc4c(cc(CNC5(C)CCC5)cc4C(F)(F)F)C3=O)c2)(c2nncn2C)C1 [Compound 104]

>  <EXPERIMENTAL_TARGET>
c-Cbl (Homo sapiens (Human))

>  <REPORTED_RESULT>
7.77

$$$$
>  <MOLECULE>
CO[C@H]1C[C@](c2cccc(N3Cc4c(cc(CNC5CC6CC6C5)cc4C(F)(F)F)C3=O)c2)(c2nncn2C)C1 (stereo partly drawn) [Compound 498]

>  <EXPERIMENTAL_TARGET>
c-Cbl (Homo sapiens (Human))

>  <REPORTED_RESULT>
7.82

$$$$
>  <MOLECULE>
CCNc1cc([C@]2(c3nncn3C)C[C@@H](C)C2)cc(N2Cc3c(cc(CNC4(C)CCC4)cc3C(F)(F)F)C2=O)n1 [Compound 5]

>  <EXPERIMENTAL_TARGET>
c-Cbl (Homo sapiens (Human))

>  <REPORTED_RESULT>
8.35

$$$$
>  <MOLECULE>
Cn1cnnc1[C@]1(c2cccc(N3Cc4c(cc(CNC5(C)CCC5)cc4C(F)(F)F)C3=O)c2)C[C@@H](CF)C1 [Compound 101]

>  <EXPERIMENTAL_TARGET>
c-Cbl (Homo sapiens (Human))

>  <REPORTED_RESULT>
8.01

$$$$

P. CO[C@H]1C[C@H]([C@@H](c2cccc(N3Cc4c(cc(CN5CCN(C)C[C@@H]5C(C)C)cc4C(F)(F)F)C3=O)c2)c2nncn2C)C1 (single isomer, unassigned) [Compound 12]
Q. Cn1cnnc1[C@]1(c2cccc(N3Cc4c(cc(CNC5(C)CCC5)cc4C(F)(F)F)C3=O)c2)C[C@]2(CCO2)C1 [Compound 108]
Prompt line: Please let me know which one, P or Q , has a lower measured pIC50 value. Answer with the label corresponding to your selection.
Response line: Q

----------
Molecular target: Cbl-b (Homo sapiens (Human), UniProt Q13191)
Sequence (Q13191 40-426): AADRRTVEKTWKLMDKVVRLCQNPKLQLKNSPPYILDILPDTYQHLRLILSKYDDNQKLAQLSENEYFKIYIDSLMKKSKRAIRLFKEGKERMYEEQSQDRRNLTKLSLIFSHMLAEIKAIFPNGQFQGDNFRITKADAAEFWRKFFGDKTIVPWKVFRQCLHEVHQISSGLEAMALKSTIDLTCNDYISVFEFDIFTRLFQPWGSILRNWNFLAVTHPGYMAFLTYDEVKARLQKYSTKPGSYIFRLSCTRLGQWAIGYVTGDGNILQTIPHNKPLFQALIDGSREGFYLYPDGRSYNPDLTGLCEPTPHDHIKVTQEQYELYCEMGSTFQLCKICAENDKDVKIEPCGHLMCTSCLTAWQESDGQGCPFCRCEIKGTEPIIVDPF
Experiment: Cbl-b LCK Ub TR-FRET assay (Cbl-b Lck HTRF)
Type: biochemical
Conditions: ratio C-cbl Lck HTRF IC50 / Cbl-b Lck HTRF IC50
TEST_READOUT: fold-selectivity (Cbl-b over C-cbl) (x)

>  <COMPOUND>
CC[C@@](O)(c1cccc(N2Cc3c(cc(CNC4(C)CCC4)cc3C(F)(F)F)C2=O)c1)c1nncn1C (single isomer, unassigned) [Compound 392]

>  <fold-selectivity (Cbl-b over C-cbl) [x]>
1.4

$$$$
>  <COMPOUND>
Cn1cnnc1[C@@H](c1cccc(N2Cc3c(cc(CNC4(C)CCC4)cc3C(F)(F)F)C2=O)c1)[C@H]1C[C@H](C#N)C1 (single isomer, unassigned) [Compound 139]

>  <fold-selectivity (Cbl-b over C-cbl) [x]>
3.6

$$$$
>  <COMPOUND>
Cn1cnnc1[C@]1(c2cccc(N3Cc4c(cc(CNC5(C)CCC5)cc4C(F)(F)F)C3=O)c2)C[C@H](CC#N)C1 [Compound 88]

>  <fold-selectivity (Cbl-b over C-cbl) [x]>
1.0

$$$$

I. CC[C@H](NC1(C)CCC1)c1cc2c(c(C(F)(F)F)c1)CN(c1cccc([C@H](c3nncn3C)C3COC3)c1)C2=O [Compound 313]
II. Cn1cnnc1[C@H](c1cccc(N2Cc3c(cc(CNC4(C)CCC4)cc3C(F)(F)F)C2=O)c1)C1CC(=O)C1 (single isomer, unassigned) [Compound 115]
Prompt line: Quick check, higher fold-selectivity (Cbl-b over C-cbl) between I and II ? Field: selected label. Fill in the label of the entry you choose.
Response line: II
